- measurement.description: Inhibition of HCV recombinant NS5B polymerase using [alpha32p]GTP after 30 mins by scintillation counting
- Design: species or system Hepacivirus hominis
property.name: IC50
State the result as a value with its unit after it.

Problem: What does the record list as IC50 for N#Cc1ccccc1COc1c(-c2ccccc2)oc2cc(O)cc(O)c2c1=O ?
Solution: 11 µM

Problem: What does the record list as IC50 for Cc1cccc(COc2c(-c3ccccc3)oc3cc(O)cc(O)c3c2=O)c1 ?
Solution: 30 µM

Problem: What does the record list as IC50 for N#Cc1ccc(COc2c(-c3ccccc3)oc3cc(O)cc(O)c3c2=O)cc1 ?
Solution: 1.3 µM

Data credit: ChEMBL document CHEMBL1268935
